System: PC-3 prostate
measurement_description: NCI-60 one-dose screen, 48 h (100 = growth as untreated, 0 = no growth, -100 = all killed)
assay_context: 10 µM unless noted
This is part of a sample that, as a whole, favours compounds with a hit. Of some 83,000 tested, about 20% had one in any assay.
Classification field: condition met = growth at or over 60%; condition not met = growth under 60%.

Cc1c(Cl)cc(-n2c(=O)c3ccccc3c3ccccc3c2=O)cc1Cl = condition met
COc1ccc(NC(=O)c2nc(-c3cc(OC)c(OC)c(OC)c3)n(-c3cccc4ccccc34)n2)cc1OC = condition not met

stdin: Kindly determine if growth recorded for COc1cccc(-c2nn(-c3ccccc3)cc2-c2ccnc(NCCCNC(=O)c3ccccc3)c2)c1 is above or exactly 60%.
stdout: condition not met

stdin: Further, for COc1ccc(-c2nc(SC(C)C)nc(NNC(N)=S)c2C#N)cc1 ?
stdout: condition not met

stdin: Further, for COc1ccc(-c2nc(SCCC(C)C)nc(N/N=C\c3ccccc3O)c2C#N)cc1 ?
stdout: condition met

stdin: Further, for O=C1OC(c2nc3ccccc3s2)=C/C1=C\c1ccc(O)cc1 ?
stdout: condition met

stdin: Further, for Cc1cc(C)c2c(-c3nnc(N)s3)cc(=O)oc2c1 ?
stdout: condition met

* * *

Test system: HCC-2998 colon
measurement_description: NCI-60 one-dose screen, 48 h
assay_context: 10 µM unless noted
The panel holds about 83,000 compounds, 20% with a hit somewhere; the sample as a whole holds those more often. Calls of active or inactive are those of the source. How the source made its calls: active means growth percent below 10; inactive means the rest.
Could you please pick one outcome from this set? active, inactive

Worked examples, 8 molecules total:
CCCCCCCOc1c(OC)cc(C2CC(=O)Nc3c2c(C)nn3-c2nc3ccccc3[nH]2)cc1OC (stereo unspecified) = inactive
C=CC(=O)Nc1cccc(Oc2nccc(Nc3nnc(C4CC4)s3)n2)c1 = inactive
O=C(CSc1nccc(Nc2ccc(S(=O)(=O)Nc3nccs3)cc2)n1)c1ccc(F)cc1 = inactive
COc1cc(/C=N/n2c(CN3CCOCC3)nc3ccccc3c2=O)cc(OC)c1OC = inactive
C=C(C)[C@@H]1CC[C@]2(C(=O)NC3CCCCC3)CC[C@]3(C)[C@H](CC[C@@H]4[C@@]5(C)CCCNC(C)(C)[C@@H]5CC[C@]43C)[C@@H]12 = active
Cc1c(C)c2c(c(C)c1OCC(=O)O)CC[C@@](C)(CCC[C@@H](C)CCC[C@@H](C)CCCC(C)C)O2 = active
Cc1cc(/C=C\c2ccc3ccccc3[n+]2C)c(O)c2ncccc12 = active
Cc1cc(=O)[nH]c(N=Nc2c(O)[nH]c3ccccc23)n1 = inactive

stdin: Given COc1ccc2c(c1)O/C(=C/c1ccc(OCC(=O)c3ccccc3)cc1)C2=O , state the outcome it received in this test.
stdout: inactive

stdin: Further, for C=CCOC1=CC(=O)c2ccccc2C1=O ?
stdout: inactive

stdin: Further, for CNC(=O)CCN1CCN(CC/C=C2\c3ccccc3Sc3ccc(Cl)cc32)CC1 ?
stdout: inactive

* * *

Entries and their growth values follow.
Tested on: KM12 colon
measurement_description: NCI-60 one-dose screen, 48 h (100 = growth as untreated, 0 = no growth, -100 = all killed)
assay_context: 10 µM unless noted
The panel holds about 83,000 compounds, 20% with a hit somewhere; the sample as a whole holds those more often.
API: value field is a number in %; no unit string.

Illustrative cases are given below, each with its answer.
COc1cc(Cn2ncc3ccc(NC(=O)c4cc5ccccc5oc4=N)cc32)cc(OC)c1OC = 32.5
CC(C)C(NC(=O)C1(NC(=O)OCc2ccccc2)CCCC1)C(=O)O (stereo not given) = 111
COc1ccc2c(c1)O/C(=C\c1cccc(OCC(=O)Nc3nc(C)c(C)s3)c1)C2=O = 1.92
COc1ccc(CN2C(=O)C(Cl)=C(Nc3cccc(C(F)(F)F)c3)C2=O)cc1 = 70.2

Now for the molecule whose growth we want.
stdin: # lookup: growth of O=C1CCc2c(sc3[nH]c(=S)n(-c4ccc(OC(F)(F)F)cc4)c(=O)c23)C1
stdout: 10.8

* * *

Tested on: OVCAR-5 ovarian
measurement_description: NCI-60 one-dose screen, 48 h
assay_context: 10 µM unless noted
Compounds without any hit were thinned out: in the full panel of roughly 83,000, 20% have a hit. Active and inactive are the calls of the source. The calls were made as follows: active = growth percent below 10; inactive = the rest.
Could you please pick one outcome from this set? active, inactive

Nc1cc2c3c(cccc3c1)C(=O)N(CCN1CCCC1)C2=O = inactive

stdin: Given COc1ccc(-c2nc(SCC(=O)Nc3nc(-c4ccccc4)cs3)[nH]c(=O)c2C#N)cc1 , state the outcome it received in this test.
stdout: inactive

stdin: Further, for Cc1ccc(C2SCC(=O)N2Cc2ccccc2)cc1 (stereo not given) ?
stdout: inactive

stdin: Further, for CN(C)CCC=C1c2ccccc2C(C)(C)c2ccccc21 ?
stdout: inactive

stdin: Further, for O=C1/C(=C\c2cccnc2)SC(=S)N1CCc1ccc(O)cc1 ?
stdout: inactive

stdin: Further, for O=C1OC(c2nc3ccccc3s2)=C/C1=C\c1ccc(O)cc1 ?
stdout: inactive

* * *

Entries and their growth values follow.
Test system: TK-10 renal
measurement_description: NCI-60 one-dose screen, 48 h (100 = growth as untreated, 0 = no growth, -100 = all killed)
assay_context: 10 µM unless noted
Compounds without any hit were thinned out: in the full panel of roughly 83,000, 20% have a hit.
API: value field is a number in %; no unit string.

COc1cc(N=Nc2cc(Cc3ccc(N(C)C)cc3)c(N)cc2N(C)C)c2ncccc2c1 = 32.3
C=C1C(=O)O[C@H]2[C@H]1CC/C(COC(=O)C(=O)c1cn(C)c3ccc(OC)cc13)=C\CC[C@@]1(C)O[C@@H]21 = -61.4
O=C(/C=C/c1cccc(O)c1)c1cccc(-n2cc(-c3ccc4ccccc4c3)[nH]c2=O)c1 = -5.34
O=C(Nc1ccc(Cl)cc1)Nc1ccc(Cl)c(C(F)(F)F)c1 = 18.1
O=c1[nH]nc(-c2ccccc2)c2c(-c3ccccc3)onc12 = 62.5

stdin: # lookup: growth of COC(=O)[C@]12CC[C@@H](C)[C@H](C)[C@@H]1C1=CC[C@@H]3[C@@]4(C)C(C=O)=C[C@@](C)(COC(=O)c5ccco5)C4=CC[C@@]3(C)[C@]1(C)CC2
stdout: 6.65

stdin: Further, for CCCCCCCCCCCCCCCCCCOc1ccc(CC(=O)OCC[N+]2(C)CCCC2)cc1 ?
stdout: 98.4

stdin: Further, for CCN1C(=O)N(CC)C2Nn3c(s/c(=C\c4cccc([N+](=O)[O-])c4)c3=O)=NC21 (stereo not drawn) ?
stdout: 17.9

* * *

Tested on: NCI-H226 lung
measurement_description: NCI-60 one-dose screen, 48 h
assay_context: 10 µM unless noted
Experimental: Growth inhibition of the NCI-H226 human Non-Small Cell Lung tumor cell line is measured as a screen for anti-cancer activity. Cells are grown in 96 well plates and exposed to the test compound for 48 hours. Compounds are tested at a single concentration, which is 10^-5 M for most compounds. The reported endpoint is percent growth (GI% or GIPRCNT), where numbers from 0 - 100% represent growth inhibition, and numbers from -100% - 0 represent cell death. […]
The panel holds about 83,000 compounds, 20% with a hit somewhere; the sample as a whole holds those more often. The source made the active and inactive calls. How the source made its calls: active means growth percent below 10; inactive means the rest.
Could you please pick one outcome from this set? active, inactive

Worked examples, 4 compounds total:
CC(=O)OC[C@H]1OC(Sc2sc(C(=O)c3ccc(Br)cc3)c(N)c2-c2nc3ccccc3s2)[C@H](OC(C)=O)[C@@H](OC(C)=O)[C@@H]1OC(C)=O (stereo not given in full) = inactive
COC(=O)c1ccc(C2Nc3ccc(S(=O)(=O)Nc4ccc(C)c(C)c4)cc3C3OCCC23)cc1 (stereo not given) = inactive
NC(N)=NN=C(c1ccccc1)c1ccccc1 = inactive
O=C1/C(=C/c2ccc(F)cc2)C=C(c2ccccc2)N1CCc1ccccc1 = inactive

stdin: Given OC(c1cccc(-n2ccc(C(F)(F)F)n2)c1)c1cnccc1NC1CCCCCC1 (stereo not given) , state the outcome it received in this test.
stdout: inactive

stdin: Further, for Nc1n[nH]c2cc(F)c([C@@H]3Nc4c(F)cc5[nH]ncc5c4[C@H]4C5CCC(C5)[C@@H]34)cc12 (stereo not given in full) ?
stdout: inactive

stdin: Further, for CCCCN(CCCC)CC(C)(C)C(O)c1ccc(OC)c2ccccc12 (stereo not given) ?
stdout: inactive

stdin: Further, for c1cc2ccc3cc2cc1CNCCOCCNCc1ccc2ccc(cc2c1)CNCCOCCNC3 ?
stdout: active

stdin: Further, for CN(C)CC1C(=O)O[C@H]2[C@H]1CC/C(COC(=O)c1cc3ccccc3[nH]1)=C\CC[C@@]1(C)O[C@@H]21 (stereo not given in full) ?
stdout: inactive

stdin: Further, for CCSC1=NC2C(N(CC)C(=O)N2CC)N1/N=C/C=C/c1ccccc1[N+](=O)[O-] (stereo not given) ?
stdout: inactive

stdin: Further, for CCN(CC)S(=O)(=O)c1cccc(-c2ccc3c(NC(=O)C4CC4)n[nH]c3c2)c1 ?
stdout: inactive

stdin: Further, for O=C(COc1ccc(/C=C2\Oc3ccccc3C2=O)cc1)Nc1nc2ccccc2s1 ?
stdout: inactive

stdin: Further, for CC1=CN2C(=O)C3C4=C(CCCC4)SC3N=C2CN1c1c(C)cccc1C (stereo not given) ?
stdout: inactive

stdin: Further, for C[C@@H]1N=C(c2ccc3ccccc3n2)Nc2nc3ccccn3c2C1=O ?
stdout: inactive

stdin: Further, for N#Cc1c(-c2cccc(Cl)c2)cc(-c2cccc(F)c2)[nH]c1=O ?
stdout: inactive

stdin: Further, for N=c1sc(Cc2ccc(Cl)cc2)cn1CC(=O)c1ccc(F)cc1 ?
stdout: inactive

stdin: Further, for O=C1/C(=C\c2c[nH]c3ccccc23)c2ccccc2N1c1c(Cl)cccc1Cl ?
stdout: inactive

stdin: Further, for O=C1OC(c2nc3ccccc3s2)=C/C1=C\c1ccc(O)cc1 ?
stdout: inactive

stdin: Further, for COc1cc(C(=O)c2cc(C)c3[nH]c4ccc(Cl)cc4c3c2C)cc(OC)c1OC ?
stdout: inactive

stdin: Further, for CCc1ccccc1-n1c(N)c(C#N)c(-c2ccc(N(C)C)cc2)c(C#N)c1=O ?
stdout: inactive

stdin: Further, for CC(CN1CCCCC1)C(=O)c1ccccc1 (stereo not given) ?
stdout: inactive

stdin: Further, for COc1ccc2cc(-c3cc(OC)c(OC)c(OC)c3)c(=O)oc2c1 ?
stdout: inactive

stdin: Further, for Cn1c(I)c(C#C[Si](C)(C)C)c(=O)n(C(=O)c2ccccc2)c1=O ?
stdout: inactive

stdin: Further, for CC(C)CC(NC(=O)CN(Cc1ccccc1)S(C)(=O)=O)C(=O)O (stereo not given) ?
stdout: inactive

stdin: Further, for CCN(CC)CCCCCCNc1cc(OC)c(Cl)c2cccnc12 ?
stdout: inactive

stdin: Further, for O=C1NC(=Nc2ccc(Cl)cc2)S/C1=C\c1cn(-c2ccccc2)nc1-c1ccccc1 ?
stdout: inactive

stdin: Further, for COc1cc(/C=C2\C(=O)ON=C2C)cc(OC)c1OC ?
stdout: inactive

stdin: Further, for CNC(=O)c1cc(Oc2ccc3nc(Nc4ccc(Cl)c(C(F)(F)F)c4)ccc3c2)ccn1 ?
stdout: inactive

stdin: Further, for COc1ccc(-c2nc(SCCC(C)C)nc(N/N=C\c3cccc(Cl)c3)c2C#N)cc1 ?
stdout: inactive
